Data credit: patent US20210047431A1

Measured Enzymatic Activity Inhibition (% of Control) of individual entries
testedTarget: recombinant human sPLA2-GIB (mature secreted form of group IB pancreatic phospholipase A2) (human, UniProt P04054 23-148)
Sequence (P04054 23-148): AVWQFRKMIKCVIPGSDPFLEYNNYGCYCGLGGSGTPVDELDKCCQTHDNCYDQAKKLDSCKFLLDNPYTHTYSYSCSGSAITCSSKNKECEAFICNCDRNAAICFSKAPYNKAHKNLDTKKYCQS
testDetails: cell-based or functional assay
Answer format: numeric, % implied, no suffix.

Query: What measured Enzymatic Activity Inhibition (% of Control) goes with #1C11 (antibody, IgG1, V domains shown, also called monoclonal antibody 1C11; #1C11 mAb) VH: EVKLQESGPELVKPGASVKISCKVSGYAFSSFWMNWVKQRPGKGLEWIGRIYPGDGDINYNGKFKGKATLTADKSSSTAYMQLSSLTSEDSAVYFCVRGWAWFPYWGQGTLVTVSA VL: EIVLTQSPAITSASLGQRVTISCSATSSVSYVHWYQQKSGTSPKPWIYEISRLASGVPARFSGSGSGTSYSLTISTMEAEDAAIYYCQSWNFPLLSFGAGTKLELKR ?
Result: 110

Query: What Enzymatic Activity Inhibition (% of Control) value was documented for this binder, #22C6 (antibody, IgG2a, V domains shown) VH: EVQLQESGPGLVKPSQTVSLNCTVTGHSITDDNYYWSWIRLVSGSKLEWIGYITSAGNTDNNPSLKSRISITRDISKNQFFLHLSSVTAEDTATYYCARDSTDGDFYFEKWGQGTTLTVSS VL: EIVLTQSPTTMAASPGEKITITCSVSSSISPNFLHWYQQKPGFSPKLLIFRTSNLASGVPTRFSGSGSGTSYSLTIGTMEAEDVATYYCHQGNSLPLTFGAGTKLELKR ?
Result: 3

Query: Bench note: what Enzymatic Activity Inhibition (% of Control) did #24B2 (antibody, IgG2a, V domains shown) VH: DVQVQESGPGLVKPSQTVSLNCTVTGHSITDDNYYWSWIRLVSGSKLEWIGYITSSGSTDINPSLKSRISITRDISKNQFFLHLNSVTAEDTATYYCARDSTDGDFYFEKWGQGTTLTVSS VL: DIVLTQSPASLAVSLGQRATISCRASESVDNYGISFMHWYQQKPGQPPKLLIYRASNLESGIPARFSGSGSRTDFTLTINPVETDDVATYYCQQSSRDLFTFGGGTKLEIKR show?
Result: 5

Query: What Enzymatic Activity Inhibition (% of Control) value was documented for this binder, #14G9 (antibody, IgG1, V domains shown, also called monoclonal antibody 14G9; #14G9 mAb) VH: QVQLQQPGAELVKPGASVKLSCKASGYTFTNYWIHWVKRRPGQGLEWIGNIDPSDTRTHYNQKFKDKATLAVDKSSSTAYMQLSSLTSEDSAVFYCARQTLYYEALDYWGQGTTLTVSS VL: DIVMTQSHKLMSTSVGDRVSITCKASQDVSTAVAWYQEKPGQSPKLLIYWASTRHTGVPNRFTGSRSGTDYTLTISSVQAEDLALYYCQQDYSTPPTFGAGTKLELKR ?
Result: 5

Query: Need Enzymatic Activity Inhibition (% of Control), item #7A10 (antibody, IgG1, V domains shown, also called monoclonal antibody 7A10; #7A10 mAb) VH: QVQLKESGPGLVAPSQSLSITCTVSGFSLTSYGVSWVRQPPGKGLEWLGVIWGDGSTNYHSALISRLSISKDNSKSQVFLKLNSLQTDDTATYYCAKEGGLRRGVYFDYWGQGTTLTVSS VL: DIQMNQSPSSLSASLGDTITITCRASQGISIWLDWYQQKPGNIPKLLIYKASNLHTGVPPRFSGSGSGTDFTLTISSLQPEDIATYYCLQSQSYPLTFGAGTKLELKR
Result: 51
